# Assayed Target: HSD17B13 (Homo sapiens (Human), UniProt Q7Z5P4)
# Sequence (Q7Z5P4 20-300): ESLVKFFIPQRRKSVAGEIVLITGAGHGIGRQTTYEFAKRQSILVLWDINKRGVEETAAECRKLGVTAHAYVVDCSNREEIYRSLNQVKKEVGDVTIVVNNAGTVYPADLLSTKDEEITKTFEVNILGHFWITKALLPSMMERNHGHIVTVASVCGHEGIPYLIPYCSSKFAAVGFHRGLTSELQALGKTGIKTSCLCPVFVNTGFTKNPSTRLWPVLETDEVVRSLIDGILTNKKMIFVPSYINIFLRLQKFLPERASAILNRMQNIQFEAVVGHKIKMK
Parameter Measured: IC50

O=C(Nc1ncsc1C(=O)NCC1CCC(F)(F)CC1)c1cc(Cl)c(O)c(Cl)c1 ... 500 to 1000 nM
O=C(Nc1cccc2nc(C(F)(F)F)n(C3CC3c3ccccc3)c(=O)c12)c1cc(Cl)c(O)c(Cl)c1 (stereo not shown) ... 100 to 500 nM
Cc1ccc(NC(=O)c2cc(Cl)c(O)c(Cl)n2)c2c(=O)n(Cc3ncccc3Cl)c(C)nc12 ... 500 to 1000 nM
Cc1nc2c(Cl)ccc(NC(=O)c3cc(Cl)c(O)c(Cl)n3)c2c(=O)n1Cc1ccccc1C(F)(F)F ... 100 to 500 nM
CC(C)(C)n1ccc(Cn2cnc3cccc(NC(=O)c4cc(Cl)c(O)c(Cl)n4)c3c2=O)n1 ... 100 to 500 nM
COc1ccccc1CCn1cnc2cccc(NC(=O)c3cc(Cl)c(O)c(Cl)c3)c2c1=O ... 100 to 500 nM

Could you now consider this next compound?
So what's the measured IC50 for this one? [2H]C([2H])([2H])c1nc2c(C)ccc(NC(=O)c3cc(Cl)c(O)c(Cl)c3)c2c(=O)n1Cc1ccccc1OC(F)(F)F
≤ 100 nM

---

pIC50: −log10 of the molar value.
Target or system HSD17B13 (Homo sapiens (Human), UniProt Q7Z5P4): recorded pIC50 listed per item.

Examples from the recorded data:
O=C(Nc1cccc2ncn(Cc3ncccc3F)c(=O)c12)c1cc(Cl)c(O)c(Cl)n1 [Example 140] ... 6.30 to 7.00
O=C(N[C@@H]1CCCC[C@H]1C(=O)NCc1ccccc1OC(F)(F)F)c1cc(Cl)c(O)c(Cl)n1 [Example 145] ... 5.00 to 6.00
Cn1ccc(-c2ccccc2Cn2cnc3cccc(NC(=O)c4cc(Cl)c(O)c(Cl)c4)c3c2=O)n1 [Example 105] ... 6.30 to 7.00

Could you now consider this next molecule?
So what's the measured pIC50 for this one? O=C(Nc1cccc2ncn(Cc3cccnc3OC(F)(F)F)c(=O)c12)c1cc(Cl)c(O)c(Cl)c1 [Example 87]
6.30 to 7.00

---

Target or system HSD17B13 (Homo sapiens (Human)): recorded pIC50 listed per item.
pIC50: −log10 of the molar value.

Examples from the recorded data:
O=C(Nc1cccc2ncnc(NCc3ccccc3OC(F)F)c12)c1cc(Cl)c(O)c(Cl)c1 [Example 54] ... 5.00 to 6.00
O=C(Nc1ccc(Cl)c2ncn(Cc3ccccc3OC(F)(F)F)c(=O)c12)c1cc(Cl)c(O)c(Cl)c1 [Example 81] ... ≥ 7.00
Cc1nc2c(F)ccc(NC(=O)c3cc(Cl)c(O)c(Cl)n3)c2c(=O)n1Cc1nn(C)c2ccccc12 [Example 194] ... 6.30 to 7.00
O=C(Nc1cccc2ncn(Cc3nncs3)c(=O)c12)c1cc(Cl)c(O)c(Cl)c1 [Example 14] ... 5.00 to 6.00
O=C(Nc1cccc2ncn(Cc3ccc(N4CCS(=O)(=O)CC4)cc3)c(=O)c12)c1cc(Cl)c(O)c(Cl)c1 [Example 63] ... 6.30 to 7.00
Cc1ccc(NC(=O)c2cc(Cl)c(O)c(Cl)c2)c2c(=O)n(Cc3ncccc3C(F)(F)F)c(C)nc12 [Example 146] ... ≥ 7.00

Could you now consider this next compound?
So what's the measured pIC50 for this one? O=C(Nc1ccc(OCCO)cc1C(=O)NCc1ccccc1OC(F)(F)F)c1cc(Cl)c(O)c(Cl)c1 [Example 86]
6.30 to 7.00

---

Target or system HSD17B13 (Homo sapiens (Human)): recorded IC50 listed per item.

Examples from the recorded data:
O=C(NC1CCCC1C(=O)NCc1ccccc1OC(F)(F)F)c1cc(Cl)c(O)c(Cl)n1 (stereo not drawn) ... 500 to 1000 nM
O=C(Nc1cccc2ncn(Cc3ccn(-c4ccccc4F)n3)c(=O)c12)c1cc(Cl)c(O)c(Cl)c1 ... ≤ 100 nM
O=C(Nc1cccc2ncn(Cc3ccn(-c4ccccc4)n3)c(=O)c12)c1cc(Cl)c(O)c(Cl)c1 ... 100 to 500 nM
Cc1ccc(NC(=O)c2cc(Cl)c(O)c(Cl)n2)c2c(=O)n(Cc3cccc(C(F)(F)F)n3)c(C)nc12 ... 500 to 1000 nM
O=C(Nc1cccc2ncn(Cc3cccnc3Cl)c(=O)c12)c1cc(Cl)c(O)c(Cl)c1 ... 100 to 500 nM
Cc1nc2cccc(NC(=O)c3cc(Cl)c(O)c(Cl)c3)c2c(=O)n1Cc1ccccc1OC(F)(F)F ... ≤ 100 nM

So what's the measured IC50 for this one? [2H]C([2H])(c1ccccc1C(F)(F)F)n1c(C)nc2c(C)ccc(NC(=O)c3cc(Cl)c(O)c(Cl)n3)c2c1=O
100 to 500 nM

Input [2H]C([2H])(c1ccccc1C(F)(F)F)n1c(C)nc2c(C)ccc(NC(=O)c3cc(Cl)c(O)c(Cl)c3)c2c1=O
≤ 100 nM

---

# Assayed Target: HSD17B13 (Homo sapiens (Human), UniProt Q7Z5P4)
Each item that follows carries a reported IC50.

Examples from the recorded data:
O=C(Nc1cccc2ncn(Cc3cc[nH]c(=O)c3)c(=O)c12)c1cc(Cl)c(O)c(Cl)c1 ... 1000 to 10000 nM
O=C(Nc1scnc1C(=O)NCc1ccccc1OC(F)(F)F)c1cc(Cl)c(O)c(Cl)c1 ... ≤ 100 nM

I'm curious: which IC50 was measured for O=C(Nc1cccc2ncn(C3(c4ccccc4F)CC3)c(=O)c12)c1cc(Cl)c(O)c(Cl)c1 tested on HSD17B13 (Homo sapiens (Human), UniProt Q7Z5P4)?
≤ 100 nM

---

Target or system HSD17B13 (Homo sapiens (Human), UniProt Q7Z5P4): recorded pIC50 listed per item.
pIC50: −log10 of the molar value.

Examples from the recorded data:
O=C(Nc1cccnc1C(=O)NCc1ccccc1OC(F)(F)F)c1cc(Cl)c(O)c(Cl)c1 [Example 69] ... 6.30 to 7.00
O=C(Nc1scnc1C(=O)NCc1cccc(C(F)(F)F)n1)c1cc(Cl)c(O)c(Cl)n1 [Example 193] ... 6.00 to 6.30
O=C(Nc1cccc2ncn(Cc3ccc(C(F)(F)F)cc3)c(=O)c12)c1cc(Cl)c(O)c(Cl)c1 [Example 6] ... ≥ 7.00
CN(C)CCOc1ccc(NC(=O)c2cc(Cl)c(O)c(Cl)c2)c(C(=O)NCc2ccccc2OC(F)(F)F)c1 [Example 85] ... < 5.00
Cc1ccc(NC(=O)c2cc(Cl)c(O)c(Cl)c2)c2c(=O)n(Cc3ccccc3OC(F)(F)F)c(C(F)F)nc12 [Example 149] ... ≥ 7.00
Cc1ccc(NC(=O)c2cc(Cl)c(O)c(Cl)c2)c2c(=O)n(Cc3ccccc3OC(F)(F)F)cnc12 [Example 88] ... ≥ 7.00
Cc1ccc(NC(=O)c2cc(Cl)c(O)c(Cl)c2)c2c(=O)n(Cc3ccccc3OC(F)(F)F)c(C)nc12 [Example 89] ... ≥ 7.00
O=C(Nc1cccc2ncn(Cc3n[nH]c4ccccc34)c(=O)c12)c1cc(Cl)c(O)c(Cl)c1 [Example 67] ... ≥ 7.00

Could you now consider this next compound?
So what's the measured pIC50 for this one? O=C(Nc1cccc2ncn(Cc3ccccc3)c(=O)c12)c1cc(Cl)c(O)c(Cl)c1 [Example 1]
6.30 to 7.00

---

Each item that follows carries a reported pIC50.
# Assayed Target: HSD17B13 (Homo sapiens (Human))
pIC50: −log10 of the molar value.

Cc1ccc(NC(=O)c2cc(Cl)c(O)c(Cl)c2)c2c(=O)n(Cc3ncccc3C(F)(F)F)c(C(F)F)nc12 ... 6.30 to 7.00
O=C(Nc1ccnc2[nH]c(=O)n(Cc3ccccc3OC(F)(F)F)c(=O)c12)c1cc(Cl)c(O)c(Cl)c1 ... 6.30 to 7.00
Cc1ccc(NC(=O)c2cc(Cl)c(O)c(Cl)n2)c2c(=O)n(Cc3ccccc3OC(F)(F)F)c(C)nc12 ... ≥ 7.00
O=C(Nc1cccc2ncn(Cc3ccccc3F)c(=O)c12)c1cc(Cl)c(O)c(Cl)n1 ... ≥ 7.00
O=C(Nc1cccc2ncn(Cc3cccc(C(F)(F)F)c3)c(=O)c12)c1cc(Cl)c(O)c(Cl)n1 ... 6.30 to 7.00

So what's the measured pIC50 for this one? O=C(Nc1csc2ncn(Cc3ccccc3)c(=O)c12)c1cc(Cl)c(O)c(Cl)n1
6.30 to 7.00

Input O=C(Nc1cccc2ncn(C3(c4ccccc4)CC3)c(=O)c12)c1cc(Cl)c(O)c(Cl)c1
5.00 to 6.00

---

# Assayed Target: HSD17B13 (Homo sapiens (Human), UniProt Q7Z5P4)
pIC50: −log10 of the molar value.
Parameter Measured: pIC50

Examples from the recorded data:
Cn1nc(NC(=O)c2cc(Cl)c(O)c(Cl)n2)c2c(=O)n(Cc3ccccc3)cnc21 [Example 107] ... 6.00 to 6.30
O=C(Nc1ccc(F)c2ncn(Cc3ccccc3OC(F)(F)F)c(=O)c12)c1cc(Cl)c(O)c(Cl)c1 [Example 132] ... ≥ 7.00

So what's the measured pIC50 for this one? O=C(Nc1cccc2ncn(C3(c4ccccc4F)CC3)c(=O)c12)c1cc(Cl)c(O)c(Cl)n1 [Example 72]
6.30 to 7.00

Input COc1ccccc1Cn1cnc2cccc(NC(=O)c3cc(Cl)c(O)c(Cl)c3)c2c1=O [Example 5]
6.30 to 7.00

Input O=C(Nc1sc(Cl)cc1C(=O)NCCc1ccccc1OC(F)(F)F)c1cc(Cl)c(O)c(Cl)c1 [Example 38]
6.30 to 7.00

Input Cc1ccc(NC(=O)c2cc(Cl)c(O)c(Cl)c2)c2c(=O)n(Cc3ccccc3C(F)(F)F)c(CF)nc12 [Example 186]
≥ 7.00

Input Cc1nsc(NC(=O)c2cc(Cl)c(O)c(Cl)n2)c1C(=O)N[C@@H](C)c1ccccc1F [Example 115]
6.30 to 7.00

Input Cc1ccc(NC(=O)c2cc(Cl)c(O)c(Cl)n2)c2c(=O)n(Cc3ccccc3C(F)(F)F)c(C)nc12 [Example 163]
6.30 to 7.00

Input O=C(Nc1cccc2ncn(Cc3ncccc3Cl)c(=O)c12)c1cc(Cl)c(O)c(Cl)c1 [Example 143]
≥ 7.00

Values were extracted from patent US20230278981A1.
